B1: CPEB3 Ribozyme (parent)
chain: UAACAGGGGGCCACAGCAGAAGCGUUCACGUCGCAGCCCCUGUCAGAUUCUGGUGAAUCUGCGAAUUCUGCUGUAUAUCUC

Variants of: B1
Test: self-cleavage, relative activity (ratio to wild type); higher = more cleavage; in vitro, sequencing
# self-cleavage per record follows
measurement_kind: self-cleavage

[[record]]
sequence_entry = "UAACAGGGGGCCACAGCAGAAGCGUUCACGUCGCAGCUCCUGUCAGAUUCUGGUAAAUCUGCGAAUUCUGCUGUAUAUCUC [C38U G55A]"
result = 0.4

[[record]]
sequence_entry = "UAAUAGGGGGCCACAGCAGAAGCGUACACGUCGCAGCCCCUGUCAGAUUCUGGUGAAUCUGCGAAUUCUGCUGUAUAUCUC [C4U U26A]"
result = 1.13

[[record]]
sequence_entry = "UAACAGGGGGCCACAGCAGAAGCGUUCACGUCGCAGCCCCUGUCAGAUACUGGUGAAUCUGCGAAUUCUGCUGUAUAUCCC [U49A U80C]"
result = 0.69

[[record]]
sequence_entry = "UAACAGGGGGCCACAGCAGAAGCGUUCACGUCGCAGCCCCUUUCAGAUUCUGGUGAAUCUGCGAAUUCUGCUGUACAUCUC [G42U U76C]"
result = 0.93

[[record]]
sequence_entry = "UAACAGGGGGCCACAGCAGAAGCGUUCACGACGCAGCCCCUGUCAGAUUCUGAUGAAUCUGCGAAUUCUGCUGUAUAUCUC [U31A G53A]"
result = 0.53

[[record]]
sequence_entry = "CAACAGGGGGCCACAGCAGAAGCGUUCACGUCACAGCCCCUGUCAGAUUCUGGUGAAUCUGCGAAUUCUGCUGUAUAUCUC [U1C G33A]"
result = 0.32

[[record]]
sequence_entry = "UAACAGGGGGCCACAGCAGAAGCGUUCACGUCGCAGCCCCUAUCAGAUUCUGGUGAAUCUGCGAAUUCUGCUGUAUUUCUC [G42A A77U]"
result = 0.39

[[record]]
sequence_entry = "UAACAGGGGGCCACUGCAGAAGCGUUCACGUCGCAGCCCCAGUCAGAUUCUGGUGAAUCUGCGAAUUCUGCUGUAUAUCUC [A15U U41A]"
result = 0.17

[[record]]
sequence_entry = "UAACAGGGGGCCACAGCAGAAGCGUUCACGUCGCAGCCCCUGUCAGAUUCUGGUGAUUCUGCGAAUUCUGCUGUAUAUCCC [A57U U80C]"
result = 0.92

[[record]]
sequence_entry = "UAACAGGGGGCCACAGCAGAAGCGUUCACGAGGCAGCCCCUGUCAGAUUCUGGUGAAUCUGCGAAUUCUGCUGUAUAUCUC [U31A C32G]"
result = 0.12

[[record]]
sequence_entry = "UAACAGGGGGCCACAGCAGAAGCGUUCACGUCGCAGCCCCUGUCAGAUUCUGGUGAAUCUGCGAAUUCUGCCGUAUAUCUU [U72C C81U]"
result = 1.23

[[record]]
sequence_entry = "UAACAGGGGGCCACAGCAGAGGCGUUCACGUCGCAGCCCCUGUCAGAUUCUGGUUAAUCUGCGAAUUCUGCUGUAUAUCUC [A21G G55U]"
result = 0.57

[[record]]
sequence_entry = "UAGCAGGGGGCCACAGCAGAAUCGUUCACGUCGCAGCCCCUGUCAGAUUCUGGUGAAUCUGCGAAUUCUGCUGUAUAUCUC [A3G G22U]"
result = 0.15

[[record]]
sequence_entry = "UAACAGGGGGCCACAGCAGAAGCGUUCACGGCGCAGCCCCUGUCCGAUUCUGGUGAAUCUGCGAAUUCUGCUGUAUAUCUC [U31G A45C]"
result = 0.33

[[record]]
sequence_entry = "UAACAGGGGGCCACAGCAGAAGCGCUCACGUCGCAGCCCCUGUCAGAUUCGGGUGAAUCUGCGAAUUCUGCUGUAUAUCUC [U25C U51G]"
result = 0.12


Cited source: the RNAGym collection of RNA variant scans (doi:10.1093/nar/gkz1192)
